systemTested: Diacylglycerol lipase-alpha (Homo sapiens)
Sequence (Q9Y4D2 whole entry): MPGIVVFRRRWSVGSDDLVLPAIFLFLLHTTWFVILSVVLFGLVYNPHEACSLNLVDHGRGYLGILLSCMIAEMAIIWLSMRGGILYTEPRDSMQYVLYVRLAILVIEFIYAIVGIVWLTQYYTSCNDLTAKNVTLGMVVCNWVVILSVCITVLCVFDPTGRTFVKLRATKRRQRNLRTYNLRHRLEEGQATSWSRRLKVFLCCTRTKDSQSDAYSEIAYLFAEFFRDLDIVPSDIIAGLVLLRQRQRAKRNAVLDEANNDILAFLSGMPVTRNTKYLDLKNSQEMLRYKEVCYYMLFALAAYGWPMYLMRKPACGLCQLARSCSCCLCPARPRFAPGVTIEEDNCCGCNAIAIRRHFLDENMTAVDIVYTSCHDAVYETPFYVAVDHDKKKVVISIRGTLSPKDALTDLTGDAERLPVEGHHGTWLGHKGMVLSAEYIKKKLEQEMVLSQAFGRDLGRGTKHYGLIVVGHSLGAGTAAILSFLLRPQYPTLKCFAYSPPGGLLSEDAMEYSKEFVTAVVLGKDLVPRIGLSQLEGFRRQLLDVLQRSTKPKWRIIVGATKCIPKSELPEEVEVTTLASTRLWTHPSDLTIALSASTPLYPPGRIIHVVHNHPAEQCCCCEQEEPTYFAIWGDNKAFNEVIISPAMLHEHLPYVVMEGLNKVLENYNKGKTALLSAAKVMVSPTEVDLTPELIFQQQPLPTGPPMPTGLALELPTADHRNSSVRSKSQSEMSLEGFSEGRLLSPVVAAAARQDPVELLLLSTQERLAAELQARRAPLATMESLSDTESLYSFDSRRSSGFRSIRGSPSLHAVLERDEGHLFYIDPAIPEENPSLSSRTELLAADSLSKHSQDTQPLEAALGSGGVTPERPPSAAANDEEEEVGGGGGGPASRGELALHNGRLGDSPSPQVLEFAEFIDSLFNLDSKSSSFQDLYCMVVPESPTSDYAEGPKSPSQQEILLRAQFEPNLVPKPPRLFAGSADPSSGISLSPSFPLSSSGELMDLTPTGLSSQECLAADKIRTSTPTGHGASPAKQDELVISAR
testProtocol: Inhibition of human recombinant DAGLalpha mediated sn-1-[14C]oleoyl-2-arachidonoyl-glycerol hydrolysis to 2-AG overexpressed in COS cells after 20 mins
measurementKind: IC50 (nM)
Value expressed in nM; do not type the unit.

> print(dat)
                        compoundstructure  unitsymbol  number
1  CN(C)C(=O)n1nnnc1CNC(=O)CCCCCCc1ccccc1          nM     200

Which IC50 is reported for this compound? CN(C)C(=O)n1nnc(Cc2ccc(-c3ccccc3)cc2)n1
510

====

inhibition (INH) values for the compounds below.
System: RBL-2H3
testProtocol: Inhibition of [14C]anandamide uptake in rat RBL-2H3 cells preincubated 10 mins before addition of [14C]anandamide
Format: functional, cell-based
Set-up: concentration or dose not given beside the values
Value expressed in %; do not type the unit.

In the examples that follow, each entry is paired with its recorded inhibition (INH).
> print(dat)
                          compoundstructure  systemtested  unitsymbol  number
1  CN(C)C(=O)n1nnnc1CNC(=O)c1ccc(N=[N+]=[N-])c(I)c1       RBL-2H3           %    32.4
2  CN(C)C(=O)n1nnc(CNC(=O)CCCCCCCc2ccccc2)n1       RBL-2H3           %    18.8

Value wanted: inhibition (INH) (RBL-2H3) of entry CN(C)C(=O)n1nnc(CCc2ccccc2)n1
10.9

Value wanted: inhibition (INH) (RBL-2H3) of entry CN(C)C(=O)n1nnc(CNC(=O)c2cccc(-c3ccccc3)c2)n1
23

Value wanted: inhibition (INH) (RBL-2H3) of entry CN(C)C(=O)n1nnnc1CNC(=O)CCCCCCCc1ccccc1
37.5

Value wanted: inhibition (INH) (RBL-2H3) of entry CN(C)C(=O)n1nnc(CNC(=O)CCCCCCc2ccccc2)n1
30

Value wanted: inhibition (INH) (RBL-2H3) of entry CN(C)C(=O)n1nnc(CCCc2ccccc2)n1
16

Value wanted: inhibition (INH) (RBL-2H3) of entry CN(C)C(=O)n1nnnc1CCCc1ccccc1
18

Value wanted: inhibition (INH) (RBL-2H3) of entry CN(C)C(=O)n1nnc(CNC(=O)c2ccc(N=[N+]=[N-])c(I)c2)n1
9

Value wanted: inhibition (INH) (RBL-2H3) of entry CN(C)C(=O)n1nnnc1CCc1ccccc1
15.8

====

systemTested: Fatty-acid amide hydrolase 1 (Rattus norvegicus)
Sequence (P97612 whole entry): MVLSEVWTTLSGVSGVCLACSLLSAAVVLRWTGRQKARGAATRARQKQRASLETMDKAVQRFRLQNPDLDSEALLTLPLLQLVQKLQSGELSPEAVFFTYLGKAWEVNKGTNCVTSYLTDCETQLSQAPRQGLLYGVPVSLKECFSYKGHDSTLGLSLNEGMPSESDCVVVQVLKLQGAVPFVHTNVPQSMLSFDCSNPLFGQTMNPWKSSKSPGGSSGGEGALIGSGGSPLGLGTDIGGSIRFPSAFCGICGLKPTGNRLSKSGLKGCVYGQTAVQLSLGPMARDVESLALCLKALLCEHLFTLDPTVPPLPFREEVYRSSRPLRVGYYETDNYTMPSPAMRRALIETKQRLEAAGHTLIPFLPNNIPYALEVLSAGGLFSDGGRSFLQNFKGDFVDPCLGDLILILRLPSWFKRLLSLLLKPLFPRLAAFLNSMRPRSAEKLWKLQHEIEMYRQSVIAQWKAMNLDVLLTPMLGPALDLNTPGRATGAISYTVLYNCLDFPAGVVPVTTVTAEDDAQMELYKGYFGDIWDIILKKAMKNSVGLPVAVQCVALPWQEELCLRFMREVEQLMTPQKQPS
pIC50: −log10 of the molar value.
Everything with pIC50 lower than 8 is Not met; everything else, including exactly 8, is Met.

Check out these entries, answers already filled in.
> print(dat)
                          compoundstructure  classname
1  CN(C)C(=O)n1nnc(CNC(=O)c2ccc(N=[N+]=[N-])c(I)c2)n1    Not met
2     CN(C)C(=O)n1nnnc1Cc1ccc(-c2ccccc2)cc1        Met
3              CN(C)C(=O)n1nnnc1CCCc1ccccc1        Met

Tell me whether pIC50 is at least 8 here: CN(C)C(=O)n1nnc(CCc2ccccc2)n1
Met

Tell me whether pIC50 is at least 8 here: CN(C)C(=O)n1nnc(CNC(=O)CCCCCCc2ccccc2)n1
Met

Tell me whether pIC50 is at least 8 here: CN(C)C(=O)n1nnc(CCCc2ccccc2)n1
Met

Cited source for all entries: ChEMBL document CHEMBL1157211
